The sequences listed here are annotated with their shrunken log2 fold change.
- Test system: Escherichia coli TOP10
- protocol_details: shrunken log2 fold change of peptide-encoding DNA abundance (4.5 h post-induction vs induction); higher = less antimicrobial activity (less host growth inhibition)
- setup_conditions: time post-induction: 4.5 h; library: site-saturation at positions 5, 18, 19, 20
Lab note: write the figure by itself, no unit.

RRIRCRPPRLPRPRPRPLPDPRP :: 0.33
RRIRRRPPRLPRPRPRPHSDPRP :: -0.0198
RRIRSRPPRLPRPRPRPLWGPRP :: -0.00343
RRIRVRPPRLPRPRPRPPLAPRP :: 0.425
RRIRVRPPRLPRPRPRPKWAPRP :: 0.269

q: Entry under review: RRIRRRPPRLPRPRPRPEPHPRP . Reported shrunken log2 fold change?
a: 0.315

q: Entry under review: RRIRRRPPRLPRPRPRPTWNPRP . Reported shrunken log2 fold change?
a: 0.951

q: Entry under review: RRIRWRPPRLPRPRPRPAYYPRP . Reported shrunken log2 fold change?
a: -0.157

q: Entry under review: RRIRRRPPRLPRPRPRPIRCPRP . Reported shrunken log2 fold change?
a: 0.334

q: Entry under review: RRIRARPPRLPRPRPRPRLHPRP . Reported shrunken log2 fold change?
a: 0.376

q: Entry under review: RRIRCRPPRLPRPRPRPHDVPRP . Reported shrunken log2 fold change?
a: -0.314

q: Entry under review: RRIRSRPPRLPRPRPRPKVTPRP . Reported shrunken log2 fold change?
a: -0.173

q: Entry under review: RRIRDRPPRLPRPRPRPDYVPRP . Reported shrunken log2 fold change?
a: -0.0518

* * *

- System: Escherichia coli TOP10
- protocol_details: shrunken log2 fold change of peptide-encoding DNA abundance (4.5 h post-induction vs induction); higher = less antimicrobial activity (less host growth inhibition)
- setup_conditions: time post-induction: 4.5 h; library: site-saturation at positions 5, 18, 19, 20
measure: shrunken log2 fold change

RRIRTRPPRLPRPRPRPFMKPRP :: -0.661

q: Entry under review: RRIRRRPPRLPRPRPRPPVIPRP . Reported shrunken log2 fold change?
a: -0.139

q: Entry under review: RRIRGRPPRLPRPRPRPHDQPRP . Reported shrunken log2 fold change?
a: 0.62

q: Entry under review: RRIRQRPPRLPRPRPRPQFTPRP . Reported shrunken log2 fold change?
a: -0.177

q: Entry under review: RRIRCRPPRLPRPRPRPRWIPRP . Reported shrunken log2 fold change?
a: 0.0454

q: Entry under review: RRIRTRPPRLPRPRPRPCVGPRP . Reported shrunken log2 fold change?
a: -0.013

q: Entry under review: RRIRVRPPRLPRPRPRPIRVPRP . Reported shrunken log2 fold change?
a: -0.473

q: Entry under review: RRIRQRPPRLPRPRPRPFKYPRP . Reported shrunken log2 fold change?
a: -0.0224

q: Entry under review: RRIRCRPPRLPRPRPRPCMFPRP . Reported shrunken log2 fold change?
a: -0.625

* * *

- System: Escherichia coli TOP10
- protocol_details: shrunken log2 fold change of peptide-encoding DNA abundance (4.5 h post-induction vs induction); higher = less antimicrobial activity (less host growth inhibition)
- setup_conditions: time post-induction: 4.5 h; library: site-saturation at positions 5, 18, 19, 20
measure: shrunken log2 fold change
Lab note: write the figure by itself, no unit.

Past entries and their recorded results:
RRIRMRPPRLPRPRPRPHDNPRP :: 0.0232
RRIRVRPPRLPRPRPRPHNDPRP :: -0.318
RRIRMRPPRLPRPRPRPDYFPRP :: -0.121
RRIRNRPPRLPRPRPRPTIIPRP :: -0.905
RRIRERPPRLPRPRPRPDDNPRP :: 0.0486

q: Entry under review: RRIRLRPPRLPRPRPRPGGYPRP . Reported shrunken log2 fold change?
a: -0.192

q: Entry under review: RRIRQRPPRLPRPRPRPLLYPRP . Reported shrunken log2 fold change?
a: -0.382

q: Entry under review: RRIRIRPPRLPRPRPRPRWCPRP . Reported shrunken log2 fold change?
a: -0.11

q: Entry under review: RRIRTRPPRLPRPRPRPNGQPRP . Reported shrunken log2 fold change?
a: 0.149

q: Entry under review: RRIRFRPPRLPRPRPRPFVPPRP . Reported shrunken log2 fold change?
a: -0.668

* * *

- Tested on: Escherichia coli TOP10
- protocol_details: shrunken log2 fold change of peptide-encoding DNA abundance (4.5 h post-induction vs induction); higher = less antimicrobial activity (less host growth inhibition)
- setup_conditions: time post-induction: 4.5 h; library: site-saturation at positions 5, 18, 19, 20
Decision: shrunken log2 fold change compared against -0.06; not below it gives condition met, below it gives condition not met.

q: Confirm if shrunken log2 fold change reported for the sequence RRIRGRPPRLPRPRPRPQAKPRP is -0.06 or above.
a: condition met

q: Confirm if shrunken log2 fold change reported for the sequence RRIRIRPPRLPRPRPRPMCCPRP is -0.06 or above.
a: condition not met

q: Confirm if shrunken log2 fold change reported for the sequence RRIRTRPPRLPRPRPRPDPMPRP is -0.06 or above.
a: condition met

q: Confirm if shrunken log2 fold change reported for the sequence RRIRMRPPRLPRPRPRPMSEPRP is -0.06 or above.
a: condition met

q: Confirm if shrunken log2 fold change reported for the sequence RRIRERPPRLPRPRPRPWLEPRP is -0.06 or above.
a: condition met

* * *

- System: Escherichia coli TOP10
- protocol_details: shrunken log2 fold change of peptide-encoding DNA abundance (4.5 h post-induction vs induction); higher = less antimicrobial activity (less host growth inhibition)
- setup_conditions: time post-induction: 4.5 h; library: site-saturation at positions 5, 18, 19, 20
Decision: shrunken log2 fold change compared against -0.008; not below it gives Criterion met, below it gives Criterion not met.

A selection of reference data follows.
RRIRTRPPRLPRPRPRPTDYPRP :: Criterion not met
RRIRPRPPRLPRPRPRPFQLPRP :: Criterion not met
RRIRGRPPRLPRPRPRPVPDPRP :: Criterion met
RRIRERPPRLPRPRPRPVKKPRP :: Criterion not met
RRIRHRPPRLPRPRPRPDPSPRP :: Criterion not met

q: Confirm if shrunken log2 fold change reported for the sequence RRIRPRPPRLPRPRPRPVGYPRP is -0.008 or above.
a: Criterion met

q: Confirm if shrunken log2 fold change reported for the sequence RRIRQRPPRLPRPRPRPDTFPRP is -0.008 or above.
a: Criterion met

q: Confirm if shrunken log2 fold change reported for the sequence RRIRGRPPRLPRPRPRPAGTPRP is -0.008 or above.
a: Criterion met

* * *

The sequences listed here are annotated with their shrunken log2 fold change.
- System: Escherichia coli TOP10
- protocol_details: shrunken log2 fold change of peptide-encoding DNA abundance (4.5 h post-induction vs induction); higher = less antimicrobial activity (less host growth inhibition)
- setup_conditions: time post-induction: 4.5 h; library: site-saturation at positions 5, 18, 19, 20
Lab note: write the figure by itself, no unit.

Past entries and their recorded results:
RRIRIRPPRLPRPRPRPSMCPRP :: -1.33
RRIRMRPPRLPRPRPRPTMNPRP :: 0.0381
RRIRPRPPRLPRPRPRPRLKPRP :: 0.344
RRIRNRPPRLPRPRPRPIRPPRP :: -0.00213
RRIRQRPPRLPRPRPRPKERPRP :: -0.00138

q: Entry under review: RRIRSRPPRLPRPRPRPGKLPRP . Reported shrunken log2 fold change?
a: -0.0662

q: Entry under review: RRIRFRPPRLPRPRPRPQDYPRP . Reported shrunken log2 fold change?
a: 0.0577

q: Entry under review: RRIRPRPPRLPRPRPRPQDCPRP . Reported shrunken log2 fold change?
a: 0.104

q: Entry under review: RRIRVRPPRLPRPRPRPFGRPRP . Reported shrunken log2 fold change?
a: 0.0302

q: Entry under review: RRIRRRPPRLPRPRPRPPEPPRP . Reported shrunken log2 fold change?
a: 0.977

q: Entry under review: RRIRSRPPRLPRPRPRPGSCPRP . Reported shrunken log2 fold change?
a: 0.0634

* * *

- Test system: Escherichia coli TOP10
- protocol_details: shrunken log2 fold change of peptide-encoding DNA abundance (4.5 h post-induction vs induction); higher = less antimicrobial activity (less host growth inhibition)
- setup_conditions: time post-induction: 4.5 h; library: site-saturation at positions 5, 18, 19, 20
The sequences listed here are annotated with their shrunken log2 fold change.

Past entries and their recorded results:
RRIRYRPPRLPRPRPRPDLLPRP :: -0.0601
RRIRTRPPRLPRPRPRPKKGPRP :: -0.0611

q: Please state recorded shrunken log2 fold change (tested on Escherichia coli TOP10) of RRIRNRPPRLPRPRPRPCWEPRP;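 also: peptides expressed intracellularly from a pBAD plasmid library in pooled LB shake-flask culture, induced with 0.3% L-arabinose, DNA abundance read by NGS, three biological replicates, DESeq2 with apeglm shrinkage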
a: -0.0598
